- System: H9c2
- assay comment: Induction of NO release in rat H9c2 cells at 10 uM under hypoxia condition by griess reagent based assay
- Type: functional
recorded metric: Activity

Task: Quick one: Activity of `Cc1cc([N+](=O)[O-])ccc1COC(=O)Oc1ccc(N(C)N=O)cc1` ?
Output: 43.21%

Task: What do you get for O=[N+]([O-])O[C@H]1CO[C@H]2[C@@H]1OC[C@H]2O[N+](=O)[O-] [ISOSORBIDE DINITRATE] ?
Output: 27.41%

Task: What do you get for `CN(N=O)c1ccc(OC(=O)OCc2ccc([N+](=O)[O-])cc2Cl)cc1` ?
Output: >20%

Task: What do you get for `CN(N=O)c1ccc(OC(=O)OCc2ccccc2[N+](=O)[O-])cc1` ?
Output: >20%

Task: What do you get for `CN(N=O)c1ccc(OC(=O)OCc2ccc([N+](=O)[O-])cc2)cc1` ?
Output: 24.38%

Hey, just so you know, these numbers are from ChEMBL document CHEMBL5375947.
